- Experimental target: T1, recombinant human EGFR extracellular domain with 6xHis (human, UniProt P00533 25-645)
- T1 construct: In-house produced; also called 6xHis EGFR ECD; soluble human EGFR ECD; not shown: 6xHis tag
- Method description: SPR competition, competitor 1320
// reported % inhibition for each item listed
Measurement name: % inhibition (%)

Binder | Measurement name | Measure unit | Value observed
antibody 1261 (antibody, human IgG1, kappa, V domains shown, Chimeric IgG1 kappa) VH: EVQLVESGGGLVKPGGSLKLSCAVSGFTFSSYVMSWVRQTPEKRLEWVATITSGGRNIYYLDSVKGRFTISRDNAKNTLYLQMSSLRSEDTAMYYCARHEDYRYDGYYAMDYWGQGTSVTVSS VL: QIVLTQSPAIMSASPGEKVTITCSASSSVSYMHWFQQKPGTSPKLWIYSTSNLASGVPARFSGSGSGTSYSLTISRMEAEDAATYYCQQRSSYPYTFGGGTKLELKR | % inhibition | % | -18
antibody 1344 (antibody, human IgG1, kappa, V domains shown, Chimeric IgG1 kappa) VH: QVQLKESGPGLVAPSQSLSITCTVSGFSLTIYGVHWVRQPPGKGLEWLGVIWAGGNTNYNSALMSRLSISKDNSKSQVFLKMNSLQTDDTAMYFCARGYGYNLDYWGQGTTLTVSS VL: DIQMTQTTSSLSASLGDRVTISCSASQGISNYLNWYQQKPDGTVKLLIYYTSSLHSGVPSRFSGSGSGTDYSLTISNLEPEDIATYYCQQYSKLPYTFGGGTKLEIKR | % inhibition | % | 8

This collection of values is drawn from patent US20110135636A1.
